Source listed as patent US8987321B2.

target: rCYP 2D6 (Homo sapiens, UniProt P10635); experiment: rCYP450 inhibition, 2D6; assay type: in vitro ADME; parameters: concentration or dose not given beside the values
Sequence (P10635 whole entry): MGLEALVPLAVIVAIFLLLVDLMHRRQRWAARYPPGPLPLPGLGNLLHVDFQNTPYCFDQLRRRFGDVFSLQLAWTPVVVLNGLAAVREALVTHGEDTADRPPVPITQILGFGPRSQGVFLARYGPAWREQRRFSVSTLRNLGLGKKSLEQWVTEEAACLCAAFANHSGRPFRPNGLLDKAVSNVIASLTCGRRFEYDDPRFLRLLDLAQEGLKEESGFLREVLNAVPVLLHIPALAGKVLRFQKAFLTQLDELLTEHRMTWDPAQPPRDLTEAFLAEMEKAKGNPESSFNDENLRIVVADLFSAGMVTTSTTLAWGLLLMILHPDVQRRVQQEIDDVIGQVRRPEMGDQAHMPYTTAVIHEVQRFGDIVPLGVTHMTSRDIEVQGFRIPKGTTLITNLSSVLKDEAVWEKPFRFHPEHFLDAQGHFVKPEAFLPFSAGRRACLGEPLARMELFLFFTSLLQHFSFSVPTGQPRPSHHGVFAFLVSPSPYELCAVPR
Cut-off 50% on rCYP % Inhibition 2D6, inclusive. At or above means 1.0; below means 0.0.

INSERT INTO measurements (querysmiles, classification) VALUES
  ('CC(=O)O[C@H](C)CCCCn1ccc2cc(Br)ccc21', 1.0),
  ('C[C@@H]([O-])CCCCN1C(=O)COc2ccccc21.[Na+]', 0.0),
  ('C[C@@H](O)CCCCOc1nn(CCCC[C@@H](C)O)c(=O)c2ccccc12', 0.0),
  ('C[C@@H](O)CCCCn1[nH]c(=O)n(-c2ccccc2)c1=O', 0.0);

---

The entries below come with measured rCYP % Inhibition 1A2 values attached.
target: rCYP 1A2 (Homo sapiens, UniProt P05177); assay: rCYP450 inhibition, 1A2; type: in vitro ADME; parameters: concentration or dose not given beside the values
Sequence (P05177 whole entry): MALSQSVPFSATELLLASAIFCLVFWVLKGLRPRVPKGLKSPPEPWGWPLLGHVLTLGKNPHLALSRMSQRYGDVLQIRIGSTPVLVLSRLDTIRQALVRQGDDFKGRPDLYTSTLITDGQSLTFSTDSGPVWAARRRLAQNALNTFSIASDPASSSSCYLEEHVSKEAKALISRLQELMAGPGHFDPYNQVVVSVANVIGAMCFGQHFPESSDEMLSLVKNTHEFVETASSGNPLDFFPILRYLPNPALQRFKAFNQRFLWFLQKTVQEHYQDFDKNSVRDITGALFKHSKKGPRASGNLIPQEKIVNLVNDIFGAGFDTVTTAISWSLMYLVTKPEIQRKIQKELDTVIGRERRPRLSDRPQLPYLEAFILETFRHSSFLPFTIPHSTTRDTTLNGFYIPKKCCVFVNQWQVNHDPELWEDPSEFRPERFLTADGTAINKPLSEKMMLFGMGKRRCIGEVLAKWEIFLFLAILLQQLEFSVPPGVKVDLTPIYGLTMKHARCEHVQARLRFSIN
recordedMetric: rCYP % Inhibition 1A2 (%)

INSERT INTO measurements (molecule, testedtarget, recordedvalue) VALUES
  ('C[C@@H](O)CCCCOc1n[nH]c(=O)c2ccccc12', 'rCYP 1A2 (Homo sapiens, UniProt P05177)', 18),
  ('C[C@@H](O)CCCCN1c2ccccc2Oc2ccccc21', 'rCYP 1A2 (Homo sapiens, UniProt P05177)', 95),
  ('C[C@@H](O)CCCCOc1nn(CCCC[C@@H](C)O)c(=O)c2ccccc12', 'rCYP 1A2 (Homo sapiens, UniProt P05177)', 25),
  ('CC(O)CCCCN1C(=O)C(C)N(CCCCC(C)O)C(=O)C1C (mixture of isomers)', 'rCYP 1A2 (Homo sapiens, UniProt P05177)', 13);

---

# rCYP % Inhibition 2C9 per record follows
target: rCYP 2C9 (Homo sapiens, UniProt P11712); assay: rCYP450 inhibition, 2C9; format: in vitro ADME; design: concentration or dose not given beside the values
Sequence (P11712 whole entry): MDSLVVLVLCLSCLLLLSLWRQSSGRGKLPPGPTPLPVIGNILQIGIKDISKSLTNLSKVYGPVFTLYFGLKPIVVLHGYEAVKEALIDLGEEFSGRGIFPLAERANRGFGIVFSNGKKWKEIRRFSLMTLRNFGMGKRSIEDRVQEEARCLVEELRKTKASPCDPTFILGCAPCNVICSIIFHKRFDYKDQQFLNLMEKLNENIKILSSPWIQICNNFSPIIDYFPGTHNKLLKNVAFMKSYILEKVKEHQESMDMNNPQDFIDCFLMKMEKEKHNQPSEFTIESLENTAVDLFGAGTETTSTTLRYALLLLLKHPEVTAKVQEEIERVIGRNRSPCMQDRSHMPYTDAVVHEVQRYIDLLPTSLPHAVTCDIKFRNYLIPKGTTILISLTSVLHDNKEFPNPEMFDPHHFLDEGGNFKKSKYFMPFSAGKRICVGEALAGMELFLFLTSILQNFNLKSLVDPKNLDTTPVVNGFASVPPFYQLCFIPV
recordedMetric: rCYP % Inhibition 2C9 (%)

INSERT INTO assay_data (compound, recordedvalue) VALUES
  ('C[C@@H](O)CCCCn1[nH]c(=O)n(-c2ccccc2)c1=O', '−12'),
  ('C[C@@H]([O-])CCCCN1C(=O)COc2ccccc21.[Na+]', 5),
  ('CC(=O)O[C@H](C)CCCCn1ccc2cc(Br)ccc21', 86),
  ('CC(O)CCCCN1C(=O)C(C)N(CCCCC(C)O)C(=O)C1C (mixture of isomers)', 3);

---

target: rCYP 2C19 (Homo sapiens, UniProt P33261); experiment: rCYP450 inhibition, 2C19; format: in vitro ADME; design: concentration or dose not given beside the values
Sequence (P33261 whole entry): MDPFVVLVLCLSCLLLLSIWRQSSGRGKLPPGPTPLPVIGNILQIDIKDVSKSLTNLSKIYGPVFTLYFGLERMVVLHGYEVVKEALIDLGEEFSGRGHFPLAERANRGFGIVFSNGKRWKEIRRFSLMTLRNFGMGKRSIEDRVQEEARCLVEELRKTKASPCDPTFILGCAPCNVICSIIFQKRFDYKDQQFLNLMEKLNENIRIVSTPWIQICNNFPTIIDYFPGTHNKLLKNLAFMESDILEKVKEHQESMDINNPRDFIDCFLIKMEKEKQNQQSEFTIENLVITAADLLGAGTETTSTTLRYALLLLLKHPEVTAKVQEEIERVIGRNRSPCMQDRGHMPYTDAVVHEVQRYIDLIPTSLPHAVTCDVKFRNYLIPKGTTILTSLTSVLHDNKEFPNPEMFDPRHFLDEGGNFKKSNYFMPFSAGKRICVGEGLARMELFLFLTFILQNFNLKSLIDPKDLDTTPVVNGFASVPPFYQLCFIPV
rCYP % Inhibition 2C19 values, listed per item
recordedMetric: rCYP % Inhibition 2C19 (%)

INSERT INTO assay_data (compound, recordedmetric, recordedvalue) VALUES
  ('C[C@@H](O)CCCCOc1nn(CCCC[C@@H](C)O)c(=O)c2ccccc12 [CPW13]', 'rCYP % Inhibition 2C19', 89),
  ('C[C@@H](O)CCCCOc1n[nH]c(=O)c2ccccc12 [CPW12]', 'rCYP % Inhibition 2C19', 30),
  ('C[C@@H](O)CCCCn1ccc2cc(Br)ccc21 [CPW4]', 'rCYP % Inhibition 2C19', 94),
  ('CC(=O)O[C@H](C)CCCCn1[nH]c(=O)n(-c2ccccc2)c1=O [CPW8]', 'rCYP % Inhibition 2C19', 24),
  ('CC(O)CCCCN1C(=O)C(C)N(CCCCC(C)O)C(=O)C1C (mixture of isomers) [CPW6]', 'rCYP % Inhibition 2C19', 14),
  ('C[C@@H](O)CCCCN1c2ccccc2Oc2ccccc21 [CPW20]', 'rCYP % Inhibition 2C19', 98),
  ('C[C@@H]([O-])CCCCN1C(=O)COc2ccccc21.[Na+] [CPW7]', 'rCYP % Inhibition 2C19', 12);
